Could you please report measured TGI for the items listed next?
Test system: BT-549 breast
ASSAY SUMMARY: NCI tumour cell line growth inhibition, 48 h
The answer is to be given in µM; state only the numeric part.

Prompt: Checklist item: TGI tested on BT-549 breast, entry c1ccc(CC(Nc2cccnc2)c2ccccc2)cc1 (stereo not given) , value?
Completion: 65.6

Prompt: Try the molecule `COC(=O)c1c2c(c(C)[n+]([O-])c1C)C(=O)C(NCc1ccc(O)cc1)=CC2=O`
Completion: 2.91

---

What TGI was measured for each of the following?
Tested on: T-47D breast
ASSAY SUMMARY: NCI tumour cell line growth inhibition, 48 h

Prompt: Which TGI reading was recorded for the compound `COc1ccc(C=O)cc1OS(=O)(=O)C(F)(F)C(F)(F)C(F)(F)C(F)(F)F` ?
Completion: > 100 µM

Prompt: Follow-up entry: `O=C1c2ccccc2C(=O)N1NC1=NCCN1`
Completion: > 100 µM

Prompt: // query: [O-][N+]1=C2CCC/C(=N/O)C2(O)C2CCCCC21N1CCOCC1 (centres undefined)
Completion: > 100 µM

Prompt: Try this compound too: `NC(=O)c1csc(-c2ccc(CO)o2)n1`
Completion: > 100 µM

Prompt: Entry to check: NC1NCCC(=O)N1CCc1c[nH]c2ccccc12 (centres undefined)
Completion: > 100 µM

Prompt: Now the compound `COc1cc2c(cc1[N+](=O)[O-])C(=O)C(Br)(Br)CCC2`
Completion: > 27.2 µM

Prompt: Please give the result for C=C(C)CCC(O)[C@](C)(O)[C@H]1[C@H](O)C[C@@]2(C)[C@@H]3CCc4c(cc(OC5OC(CO)C(O)C(O)C5O)c(O)c4C)C3(C)C(=O)C[C@]12C (some centres undefined) too.
Completion: > 100 µM

Prompt: Please give the result for COc1cc(C2CC(c3cccc(Nc4ccnc5cc(Cl)ccc45)c3)=NN2c2ccccc2)cc(OC)c1OC (centres undefined) too.
Completion: > 100 µM

Prompt: Also `CC(C)C(=O)/C=C/c1c(Cl)cccc1Cl` ?
Completion: 9.31 µM

Prompt: Record: `COc1cc(C(=O)NN=C2c3ccccc3-c3ccccc32)cc(OC)c1OC`
Completion: 65.5 µM

Prompt: Now this one: `Cc1[nH]nc(C(=O)N/N=C/c2ccccc2Cl)c1N=NN(C)C`
Completion: > 100 µM

Prompt: Can you handle OCC1OC(n2cnc3c(Cl)nc(Nc4ccc(Cl)c(Cl)c4)nc32)CC1O (centres undefined) next?
Completion: > 50 µM

Prompt: Please answer likewise for `CN(/N=C/C=N/N(C)C1=NCCN1)C1=NCCN1`
Completion: > 100 µM

Prompt: Lookup `COC(=O)[C@]12CC[C@@H](C)[C@H](C)[C@@H]1C1=CC[C@@H]3[C@@](C)(CC#N)C4=C(C[C@@]3(C)[C@]1(C)CC2)OC[C@]4(C)C=O`
Completion: 16.1 µM

---

Exercise: for every item that follows, state its recorded TGI.
Test system: SNB-75 CNS
ASSAY SUMMARY: NCI tumour cell line growth inhibition, 48 h
Numeric only. Scale: µM

Prompt: Can you look up the measured TGI of Nc1n[nH]c2ccc([C@@H]3Nc4ccc5cn[nH]c5c4[C@H]4C5CCC(C5)[C@@H]34)cc12 (some centres undefined) for me?
Completion: 3.59

Prompt: Now try `Nc1c(C(=O)Nc2cccc(C(F)(F)F)c2)sc2nc3c(cc12)CCCCCC3` .
Completion: 3.47

Prompt: // query: O=CC1OC(=O)c2cc(O)c(O)c(O)c2-c2c(cc(O)c(O)c2O)C(=O)OC1C1OC(=O)c2cc(O)c(O)c(O)c2-c2c(O)c(O)c3oc(=O)c4c(c(O)c(O)c5oc(=O)c2c3c54)-c2c(cc(O)c(O)c2O)C(=O)OCC1O (centres undefined)
Completion: 93.8

Prompt: Field entry: `COc1cc2c(cc1-c1coc3cc(O)ccc3c1=O)OCO2`
Completion: 46.1

Prompt: Then this compound: `COC(=O)Nc1nc2ccc(C(=O)c3ccc(F)cc3)cc2[nH]1`
Completion: 12.4

Prompt: Another compound: `COC(=O)c1c2c(c(C)[n+]([O-])c1C)C(=O)C(NCc1ccc(O)cc1)=CC2=O`
Completion: 3.06

Prompt: Input CCCCCCCCCCCCCCCC(=O)OC1C(O)C(O)C(O)C(O)C12CO2 (centres undefined)
Completion: 93.2

Prompt: Cool, now `COc1ccc2nc3cc(Cl)ccc3c(NCCCCCC(=O)NC(COc3ccc4ccc5cccnc5c4n3)COc3ccc4ccc5cccnc5c4n3)c2c1`
Completion: 35.4

Prompt: Field entry: `COc1ccc(-c2cc(=O)c3cc(O)ccc3o2)c(OC)c1OC`
Completion: 76.5

Prompt: And then CC[C@@H](C)/C=C(C)/C=C/C(=O)c1c(O)c(-c2ccc(O)cc2)cn(OC2CC(=O)CCC(C)OC(=O)CC2O)c1=O (some centres undefined) , what is it?
Completion: 19.3

Prompt: Also, `CC(=O)ON=C1C=CC(=C(C#N)c2ccccc2)C=C1` please.
Completion: 13.7

Prompt: Ok, now `C=C(C)COc1cc(NC(=S)OC(C)C)ccc1Cl`
Completion: 29.8

Prompt: Subsequent entry: `O=C(CN1CCN(C(=O)c2ccco2)CC1)Nc1ccc(Cl)cc1C(=O)c1ccccc1Cl`
Completion: 28.3

---

Tested on: HOP-62 NSCLC
ASSAY SUMMARY: NCI tumour cell line growth inhibition, 48 h
OBSERVATION TYPE: log10 TGI (log10 of the value in µM)
Hello, just confirming the data are log10 of TGI with units of µM.

Prompt: Please report the recorded log10 TGI for `C[C@]12CC[C@H]3[C@@H](CC[C@]4(O)C[C@@H](O[C@@H]5O[C@H](CO)[C@@H](O[C@@H]6OC[C@@H](O)[C@H](O)[C@H]6O)[C@H](O)[C@H]5O)CC[C@]34C=O)[C@@]1(O)CC[C@@H]2C1=CC(=O)OC1` .
Completion: 0.48

Prompt: Similarly, `COc1ccc(/C=C/C(=O)CCN2CCN(CCC(=O)/C=C/c3ccc(OC)cc3)CC2)cc1` ?
Completion: 1.70

Prompt: `COc1ncc(-c2ccc3nccc(C#CCCCCC(=O)NO)c3c2)cc1NS(=O)(=O)c1ccc(F)cc1F` ?
Completion: 1.00

Prompt: Also `CC(=O)Nc1cc2c3c(cccc3c1)-c1ccccc1-2` , if possible.
Completion: 1.84

Prompt: Moving on to the next molecule: c1ccc(CC(Nc2cccnc2)c2ccccc2)cc1 (stereo not given)
Completion: 1.78

Prompt: Subsequent entry: `COc1cc(C(=O)NN=C2c3ccccc3-c3ccccc32)cc(OC)c1OC`
Completion: 1.56

Prompt: # repeat for `Nc1cc(N)c2nc(NCCc3ccc(Cl)c(Cl)c3)cnc2c1`
Completion: 1.58

Prompt: What do we get for CC(C)[Si](Oc1ccc(CC2N(C(=O)c3ccc([N+](=O)[O-])cc3)C(CCc3ccccc3)CC2(C)C=O)cc1)(C(C)C)C(C)C (stereo not given) ?
Completion: 1.50

---

Task for the reader: assign each of the following molecules its reported TGI.
System: TK-10 renal
ASSAY SUMMARY: NCI tumour cell line growth inhibition, 48 h
All answers are understood in µM, so give the number only.

Prompt: Would you kindly share the measured TGI for `Cc1c(Cl)c(C)c(Cl)c(O)c1Cl` ?
Completion: 82.3

Prompt: Another molecule to check: Clc1ccccc1C1SCc2nc3ccccc3n21 (stereo unspecified)
Completion: 71.6

Prompt: Subsequent entry: `O=C(CCN1CCCN(c2cnc3ccccc3n2)CC1)c1csc2ccccc12`
Completion: 29.5

Prompt: Also, `C=CC(=O)N1CCC[C@@H](n2nc(-c3ccc(Oc4ccccc4)cc3)c3c(N)ncnc32)C1` please.
Completion: 3.14

Prompt: Another: `Cc1ccccc1-n1c(CCl)nc2ccc(Br)cc2c1=O`
Completion: 70.1

Prompt: Lookup `COCCCNc1c2ccccc2nc2ccccc12`
Completion: 89.8

Prompt: Record: `CCCCOC(=O)c1c(C)[nH]c(/C=C2\N=C(c3ccc[nH]3)C=C2OC)c1C`
Completion: 5.07

Prompt: Try the molecule NC1NCCC(=O)N1CCc1c[nH]c2ccccc12 (stereo unspecified)
Completion: 51.7

Prompt: Quick one: `CC(=O)ON=C1C=CC(=C(C#N)c2ccccc2)C=C1`
Completion: 9.9

Prompt: Follow-up item: `[CH3][Hg]/[N]=C(/N)NC#N`
Completion: 14.8

Prompt: Next up: `COc1cc2c(cc1OCCCN1CCN(C(=S)SCCC(C#N)(c3ccccc3)c3ccccc3)CC1)N=C[C@@H]1CCCN1C2=O`
Completion: 2.87

Prompt: Then what about the molecule `Nc1c(C(=O)Nc2cccc(C(F)(F)F)c2)sc2nc3c(cc12)CCCCCC3` ?
Completion: 5.82

Prompt: Follow-up item: CC(=O)O[C@@H]1CC[C@@]2(C)C(=O)C34C[C@@]5(C)C([C@@H](C)CCCC(C)C)CCC5(C)[C@](O)(O3)C(=O)[C@H]4C2C1(C)C (stereo partly specified)
Completion: 30.5

Prompt: Try the molecule `O=C1N[C@H](C(=O)O)[C@@H](c2ccc(OCc3ccccc3)cc2)O1`
Completion: 84.4

Prompt: Would you mind doing `COC(=O)c1cccc(NC(=O)c2ccc(NC3=C(Cl)C(=O)N(Cc4ccccc4)C3=O)cc2)c1` as well?
Completion: 63.4

Prompt: Further, for `CC1(C)[C@H]2Cc3cc4nc5ccccn5c4cc3[C@@H]1C2` ?
Completion: 33

Prompt: Another molecule to look at: `COC(=O)Nc1nc2ccc(C(=O)c3ccc(F)cc3)cc2[nH]1`
Completion: 58.3
